Consider the following compounds and their measured percent reduction in TR-FRET probe signal readings.
Tested on: AEK1 (Tb927.3.2440)
Assay: percent reduction in TR-FRET probe signal relative to DMSO control; higher = stronger displacement of ATP-site probe (binding)
Settings: 1 µM; incubation time 1 h
Report the value in % with no unit label.

Worked examples follow.
| compound | measured |
| --- | --- |
| N#C/C(=C(/N)Sc1ccc(N)cc1)c1ccccc1C(F)(F)F | 2.78 |
| CCC(=O)Nc1cccc(Oc2nc(Nc3ccc(N4CCN(C)CC4)cc3OC)ncc2Cl)c1 | -15.7 |
| Cc1cnc(Nc2ccc(F)cc2Cl)nc1-c1c[nH]c(C(=O)N[C@H](CO)c2cccc(Cl)c2)c1 | 9.02 |
| CNC(=O)c1ccccc1Sc1ccc2c(/C=C/c3ccccn3)n[nH]c2c1 | 52.4 |
| C=CCc1ccc(O)c(-c2ccc(O)c(CC=C)c2)c1 | 1.65 |
| COc1cc2c(Oc3ccc(NC(=O)C4(C(=O)Nc5ccc(F)cc5)CC4)cc3F)ccnc2cc1OCCCN1CCOCC1 | 56 |
| COc1cc2ncnc(Nc3ccc(F)c(Cl)c3)c2cc1OCCCN1CCOCC1 [Gefitinib (ZD1839)] | 5.46 |
| Cl.Cl.OC(c1cc(-c2ccc(Cl)cc2)nc2ccccc12)C1CCCCN1 (stereo not drawn) | -5.59 |
| CN1CCN(CCOc2cc(OC3CCOCC3)c3c(Nc4c(Cl)ccc5c4OCO5)ncnc3c2)CC1 | 11.4 |
| Cn1cc(-c2ccc3nnc(C(F)(F)c4ccc5ncccc5c4)n3n2)cn1 | -0.537 |

Now for a further compound.
Exercise: Input CN1CCN(C2CCN(C(=O)Nc3cc(Oc4ccc(NC(=O)C5(C(=O)Nc6ccc(F)cc6)CC5)c(F)c4)ccn3)CC2)CC1 [Golvatinib (E7050)] , output reported percent reduction in TR-FRET probe signal.
Key: 0.527

----------
Tested on: AEK1 (Tb927.3.2440)
Assay: percent reduction in TR-FRET probe signal relative to DMSO control; higher = stronger displacement of ATP-site probe (binding)
Details: 1 µM; incubation time 1 h
Entries and their percent reduction in TR-FRET probe signal
Answer in %, number only, no unit symbol.

Reference set, count: 8
| compound | measured |
| --- | --- |
| COc1cc2nccc(Oc3ccc(NC(=O)Nc4cc(C)on4)c(Cl)c3)c2cc1OC | -2.48 |
| CN1CCCN(C(=O)c2cccc(-c3ccc(/C=C4/C(=O)Nc5ccc(Cl)cc54)o3)c2)CC1.Cl | -0.203 |
| O=C1N=C(NCc2cccs2)S/C1=C\c1ccc2ncccc2c1 | 8.12 |
| CN1CCN(Cc2ccc(-c3cnc4[nH]cc(-c5ccc6[nH]ccc6c5)c4c3)cc2)CC1 | 11.2 |
| CN(C)CCCn1cc(C2=C(c3c[nH]c4ccccc34)C(=O)NC2=O)c2ccccc21 | 8.74 |
| CN(c1ccccc1CNc1nc(Nc2ccc3c(c2)CC(=O)N3)ncc1C(F)(F)F)S(C)(=O)=O | 55.1 |
| CCc1cncnc1N1CCN(Cc2nc3cc(C(F)(F)F)ccc3[nH]2)CC1 | -7.37 |
| Cl.O=S(=O)(c1cccc2cnccc12)N1CCCNCC1 [Fasudil (HA-1077) HCl] | 4.93 |

Exercise: Give reported percent reduction in TR-FRET probe signal value for COc1ccc(-c2nc(N3CCOCC3)c3sc(CN(C)c4ncc(C(=O)NO)cn4)cc3n2)cn1
Key: -2.41

Exercise: Given CC(C)(C)Cn1c(N)nc2ccc(-c3[nH]c(C(C)(C)C)nc3-c3ccc(F)cc3)nc21.CS(=O)(=O)O.CS(=O)(=O)O , respond with its percent reduction in TR-FRET probe signal.
Key: -14.9

Exercise: Indicate its recorded percent reduction in TR-FRET probe signal; the compound in question is Cn1ncc(Cl)c1-c1cc(C(=O)N[C@H](CN)Cc2ccc(F)c(F)c2)oc1Cl
Key: 33.2

Exercise: Please list percent reduction in TR-FRET probe signal recorded for the compound O=c1c(-c2ccc(O)cc2)coc2cc(O)cc(O)c12
Key: 23.3

Exercise: Given COCC(=O)NC/C=C/c1ccc2ncnc(Nc3ccc(Oc4ccc(C)nc4)c(C)c3)c2c1 , respond with its percent reduction in TR-FRET probe signal.
Key: 3.65

Exercise: Name the recorded percent reduction in TR-FRET probe signal of the item O=C(Nc1cccnc1)c1cc(-c2ccnc(F)c2)ccc1OCc1ccccc1 in your answer.
Key: -0.16

Exercise: For the compound Cc1nc(NC(=O)N2CCC[C@H]2C(N)=O)sc1-c1csc(C(C)(C)C)n1 , give its measured percent reduction in TR-FRET probe signal value.
Key: 3.71

Exercise: Give a short answer stating reported percent reduction in TR-FRET probe signal for Cc1c(NC(=O)OC[C@@H]2COCCN2)cn2ncnc(Nc3ccc4c(cnn4Cc4cccc(F)c4)c3)c12 .
Key: -10.7

Exercise: Determine its reported percent reduction in TR-FRET probe signal: O=C1NC(=O)/C(=C/c2cccc(C(F)(F)F)c2)S1
Key: -3.02

----------
The following compounds are shown together with reported percent reduction in TR-FRET probe signal values.
System: AEK1 (Tb927.3.2440)
Assay: percent reduction in TR-FRET probe signal relative to DMSO control; higher = stronger displacement of ATP-site probe (binding)
Details: 1 µM; incubation time 1 h
Just so you know, I need the unit written after the number.

Examples with answers:
| compound | measured |
| --- | --- |
| COc1cc2ncnc(Oc3cccc(NC(=O)Nc4cc(C(C)(C)C(F)(F)F)on4)c3)c2cc1OC | 1.1% |
| CO[C@H]1C[C@@H]2CC[C@@H](C)[C@@](O)(O2)C(=O)C(=O)N2CCCC[C@H]2C(=O)O[C@H]([C@H](C)C[C@@H]2CC[C@@H](OP(C)(C)=O)[C@H](OC)C2)CC(=O)[C@H](C)/C=C(\C)[C@@H](O)[C@@H](OC)C(=O)[C@H](C)C[C@H](C)/C=C/C=C/C=C/1C | 1.74% |
| O=c1cc(-c2cccc3c2Sc2ccccc2S3)oc(N2CCOCC2)c1 | -8.85% |

Exercise: Find the measured percent reduction in TR-FRET probe signal of CCOc1cc(C(=O)N2CCC(N3CCN(C)CC3)CC2)ccc1Nc1ncc2c(n1)N(C1CCCC1)c1ccccc1C(=O)N2C and report it.
Key: -3.15%

Exercise: For the compound Cl.O=C1NCCc2[nH]c(-c3ccncc3)cc21 , give its measured percent reduction in TR-FRET probe signal value.
Key: 11.4%

Exercise: Please report percent reduction in TR-FRET probe signal for the following compound: C=CC(=O)N1CCCC(n2c(=O)n(-c3ccc(Oc4ccccc4)cc3)c3c(N)ncnc32)C1 (configuration not stated)
Key: 4.33%

Exercise: Query percent reduction in TR-FRET probe signal for Cc1cc(Nc2nc(N[C@@H](C)c3ccc(F)cc3)c(C#N)cc2F)n[nH]1
Key: 56.3%
